test system: MEK3; construct: gene MAP2K3; conditions: concentration: 1 μM, replicates: in singlicate; n = 1;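 also: KINOMEscan kinase panel screen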
Metric: %Inh (%)
Give just the number in %; leave the unit off.

Examples with answers:
stdin: Supply %Inh value. Item: COC(=O)c1cccc(NC(=O)NC2CCN(c3ccnc(Nc4ccc(OC)cc4)n3)C2)c1 (stereo not drawn)
stdout: 0

stdin: Supply %Inh value. Item: Cc1ccc(NC(=O)Nc2ccccc2F)cc1-c1ccc(C(=O)Nc2ccncc2)cc1
stdout: 0

stdin: Supply %Inh value. Item: COc1ccc(CSc2nnc(-c3ccc4c(c3)CCO4)o2)cc1
stdout: 0

Continuing:
stdin: Supply %Inh value. Item: CNc1nc(-c2ccc3c(N)n[nH]c3c2)cc(N2C[C@@H](C(=O)Nc3ccccc3)CC[C@H]2C)n1
stdout: 0

stdin: Supply %Inh value. Item: CN1c2ccc(-c3ccc(C(N)=O)cc3)cc2-c2[nH]ncc2S1(=O)=O
stdout: 16

stdin: Supply %Inh value. Item: Nc1ncnc2occ(-c3ccc4c(c3)CCN4C(=O)Cc3cc(F)ccc3F)c12
stdout: 0

stdin: Supply %Inh value. Item: Cc1ccccc1Cn1ccn2c(=O)cc(N3CCOCC3)nc12
stdout: 0

stdin: Supply %Inh value. Item: CC(C)c1ccc(O)cc1Nc1ccnc2ccc(C(F)(F)F)cc12
stdout: 0

* * *

Property: %Inh; scope: individual compounds
test system: NEK9; settings: concentration: 1 μM, replicates: in singlicate; n = 1
Give just the number in %; leave the unit off.

stdin: Supply %Inh value. Item: Cc1ccc(NC(=O)c2ccc(Cl)cc2)cc1-c1ccc(C(=O)Nc2ccncc2)cc1
stdout: 0

stdin: Supply %Inh value. Item: c1ccc(-c2ccnc3[nH]ccc23)cc1
stdout: 0

stdin: Supply %Inh value. Item: COc1ccc(-c2coc3ccc(-c4nnc(C)o4)cc23)cc1
stdout: 0

stdin: Supply %Inh value. Item: COc1ccc(Nc2nccc(N3CCC(NC(=O)C(C)c4ccc(Cl)cc4)CC3)n2)cc1 (stereo not shown)
stdout: 10

Continuing:
stdin: Supply %Inh value. Item: COc1cccc(C2=C(Nc3cc(Cl)c(O)c(Cl)c3)C(=O)NC2=O)c1
stdout: 0

stdin: Supply %Inh value. Item: CNc1cc(-c2ccc3c(N)n[nH]c3c2)nc(N)n1
stdout: 0

stdin: Supply %Inh value. Item: Fc1ccc(-c2nc3n(c2-c2ccncc2)CCS3)cc1
stdout: 8

stdin: Supply %Inh value. Item: Cc1ccc(NC(=O)Nc2ccccc2)cc1-c1ccc(C(=O)Nc2ccncc2)cc1
stdout: 23

stdin: Supply %Inh value. Item: COC(=O)c1cccc(NC(=O)NC2CCN(c3ccnc(Nc4ccc(OC)cc4)n3)C2)c1 (stereo not shown)
stdout: 0

stdin: Supply %Inh value. Item: Cn1cnc2c(N)ncnc21
stdout: 0

* * *

Property: %Inh; scope: individual compounds
test system: PAK3; settings: concentration: 1 μM, replicates: in singlicate; n = 1
Give just the number in %; leave the unit off.

Examples with answers:
stdin: Supply %Inh value. Item: O=C(Nc1n[nH]c2nc(-c3cccs3)c(Br)cc12)C1CC1 [SB-735297]
stdout: 0

stdin: Supply %Inh value. Item: O=c1cc(N2CCOCC2)nc2n(Cc3ccccc3F)ccn12 [GSK2297428]
stdout: 24

stdin: Supply %Inh value. Item: Cc1cccc2c(-c3ccncn3)c(-c3ccc(F)cc3)nn12 [GW515532]
stdout: 29

Continuing:
stdin: Supply %Inh value. Item: COc1ccc(-c2coc3ccc(-c4nnc(C)o4)cc23)cc1
stdout: 0

stdin: Supply %Inh value. Item: Cc1ccc(NC(=O)Nc2ccc(Cl)c(C(F)(F)F)c2)cc1-c1ccc(C(=O)Nc2ccncc2)cc1 [GSK1398470]
stdout: 22

* * *

Property: %Inh; scope: individual compounds
tested on: AMPK-alpha2; construct: gene PRKAA2; settings: concentration: 1 μM, replicates: in singlicate; n = 1
Give just the number in %; leave the unit off.

Examples with answers:
stdin: Supply %Inh value. Item: NS(=O)(=O)c1cccc(N/C=C2\C(=O)Nc3ccc(S(=O)(=O)Cc4c(Cl)cccc4Cl)cc32)c1
stdout: 0

stdin: Supply %Inh value. Item: CC(=O)c1c(C)c2cnc(Nc3ccc(N4CCNCC4)cn3)nc2n(C2CCCC2)c1=O
stdout: 0

stdin: Supply %Inh value. Item: CNC(=O)c1ccc(C)c(-n2c(C)cc(OCc3ccc(F)cc3F)c(Br)c2=O)c1
stdout: 5

stdin: Supply %Inh value. Item: CS(=O)(=O)Cc1ccc(Nc2nccc(-c3c(-c4cccc(NC(=O)C5CCCCC5)c4)nn4ncccc34)n2)cc1
stdout: 2

stdin: Supply %Inh value. Item: Cn1cncc1C(=O)NC1CCN(c2ccnc(Nc3ccc(F)cc3)n2)C1 (centres unmarked)
stdout: 12

Continuing:
stdin: Supply %Inh value. Item: COc1ccc(Nc2nccc(N3CCC(NC(=O)c4cc5ccccc5s4)C3)n2)cc1 (centres unmarked)
stdout: 3

stdin: Supply %Inh value. Item: CC(=O)c1cccc(NC(=O)NC2CCN(c3ccnc(Nc4ccc(F)cc4)n3)C2)c1 (centres unmarked)
stdout: 0

stdin: Supply %Inh value. Item: FC(F)(F)c1ccccc1-c1cc(-c2c[nH]nc2-c2ccccn2)ccn1
stdout: 25

stdin: Supply %Inh value. Item: COc1ccc(Nc2nccc(N3CCC(NC(=O)C(C)c4ccc(Cl)cc4)CC3)n2)cc1 (centres unmarked)
stdout: 11

stdin: Supply %Inh value. Item: O=c1cc(N2CCOCC2)nc2n(Cc3cccc(Cl)c3Cl)c3ccccc3n12
stdout: 16

* * *

Property: %Inh; scope: individual compounds
system: TESK1; conditions: concentration: 1 μM, replicates: in singlicate; n = 1
Give just the number in %; leave the unit off.

stdin: Supply %Inh value. Item: COc1cccc(NC(=O)Nc2ccc(C)c(-c3ccc(C(=O)Nc4ccncc4)cc3)c2)c1
stdout: 19

stdin: Supply %Inh value. Item: Cc1c(Cn2c(C)c(C)n3c(=O)cc(N4CCOCC4)nc23)cccc1C(F)(F)F
stdout: 22

stdin: Supply %Inh value. Item: Cc1ccc(NC(=O)Nc2ccc(Cl)cc2)cc1-c1ccc(C(=O)Nc2ccncc2)cc1
stdout: 54

stdin: Supply %Inh value. Item: COc1cccc(CNC(=O)NC2CCN(c3ccnc(Nc4ccc(F)cc4)n3)C2)c1 (stereo not drawn)
stdout: 100

stdin: Supply %Inh value. Item: CCc1ccc(-c2ccc3c(c2)-c2n[nH]cc2S(=O)(=O)N3C)cc1
stdout: 15

stdin: Supply %Inh value. Item: O=C(Nc1n[nH]c2nc(-c3cccs3)c(Br)cc12)C1CC1
stdout: 19

Continuing:
stdin: Supply %Inh value. Item: CC(C)c1cc(-c2ccc3c(N)n[nH]c3c2)nc(N)n1
stdout: 35

stdin: Supply %Inh value. Item: CCn1c(-c2c(N)noc2C)nc2cnccc21
stdout: 54

stdin: Supply %Inh value. Item: COc1ccc(CSc2nnc(-c3ccc4ncsc4c3)o2)cc1C(F)(F)F
stdout: 3

* * *

tested on: RET; conditions: concentration: 1 μM, replicates: in singlicate; n = 1
Metric: %Inh

Examples with answers:
stdin: Supply %Inh value. Item: Cc1c(Cn2c3ccccc3n3c(=O)cc(N4CCOCC4)nc23)cccc1C(F)(F)F
stdout: 0%

stdin: Supply %Inh value. Item: CNCc1ccc2nc(NC(=O)c3ccc(C(C)(C)C)cc3)cn2c1
stdout: 14%

stdin: Supply %Inh value. Item: COc1ccc2cc(-c3nc(-c4ccccc4C(C)C)[nH]c3-c3ccncc3)ccc2c1
stdout: 4%

stdin: Supply %Inh value. Item: Cc1ccccc1-c1cc(-c2c[nH]nc2-c2ccccn2)ccn1
stdout: 0%

stdin: Supply %Inh value. Item: Nc1cccc(-c2ccc3c(N)n[nH]c3c2)n1
stdout: 0%

stdin: Supply %Inh value. Item: COC(=O)c1cccc(NC(=O)NC2CCN(c3ccnc(Nc4ccc(OC)cc4)n3)C2)c1 (stereo not drawn)
stdout: 0%

stdin: Supply %Inh value. Item: Cc1ccc(NC(=O)Nc2ccccc2)cc1-c1ccc(C(=O)Nc2ccncc2)cc1
stdout: 13%

stdin: Supply %Inh value. Item: Cc1cccc2c(-c3ccncn3)c(-c3ccc(F)cc3)nn12
stdout: 0%

Continuing:
stdin: Supply %Inh value. Item: CNc1nc(-c2ccc3c(N)n[nH]c3c2)cc(N2C[C@@H](C(=O)Nc3ccccc3)CC[C@H]2C)n1
stdout: 4%

stdin: Supply %Inh value. Item: Cc1ccc(NC(=O)c2ccc(Cl)cc2)cc1-c1ccc(C(=O)Nc2ccncc2)cc1
stdout: 0%

* * *

system: CSNK2A2; settings: concentration: 1 μM, replicates: in singlicate; n = 1
Property: %Inh; scope: individual compounds
Give just the number in %; leave the unit off.

Examples with answers:
stdin: Supply %Inh value. Item: Fc1ccc(-c2nc[nH]c2-c2ccncc2)cc1 [SB-217360]
stdout: 0

stdin: Supply %Inh value. Item: COC(=O)C(Cc1ccccc1)NC(=O)NC1CCN(c2ccnc(Nc3ccc(F)cc3)n2)C1 (stereo not drawn) [GSK1379714]
stdout: 14

stdin: Supply %Inh value. Item: O=C(Nc1n[nH]c2nc(-c3cccs3)c(Br)cc12)C1CCCC1 [SB-743341]
stdout: 17

stdin: Supply %Inh value. Item: Fc1ccc(-c2nn3cccc(F)c3c2-c2ccncc2)cc1 [GW475620]
stdout: 9

stdin: Supply %Inh value. Item: CC(=O)c1cccc(NC(=O)NC2CCN(c3ccnc(Nc4ccc(F)cc4)n3)C2)c1 (stereo not drawn) [GSK1379710]
stdout: 15

Continuing:
stdin: Supply %Inh value. Item: Cc1ccc(NC(=O)c2ccc(Cl)cc2)cc1-c1ccc(C(=O)Nc2ccncc2)cc1 [GSK1398467]
stdout: 0

stdin: Supply %Inh value. Item: Cn1cnc2c(N)ncnc21 [SKF-97623]
stdout: 0

stdin: Supply %Inh value. Item: CNC(=O)c1ccc(C)c(-n2c(C)cc(OCc3ccc(F)cc3F)c(Br)c2=O)c1
stdout: 0

stdin: Supply %Inh value. Item: COc1ccc(Nc2nccc(N3CCC(NC(=O)C(C)c4ccc(Cl)cc4)C3)n2)cc1 (stereo not drawn) [GSK1379735]
stdout: 14
